# target: Porcine DPP-IV (Sus scrofa, UniProt P22411)
# Construct: purchased Sigma-Aldrich Germany
# Sequence (P22411 whole entry): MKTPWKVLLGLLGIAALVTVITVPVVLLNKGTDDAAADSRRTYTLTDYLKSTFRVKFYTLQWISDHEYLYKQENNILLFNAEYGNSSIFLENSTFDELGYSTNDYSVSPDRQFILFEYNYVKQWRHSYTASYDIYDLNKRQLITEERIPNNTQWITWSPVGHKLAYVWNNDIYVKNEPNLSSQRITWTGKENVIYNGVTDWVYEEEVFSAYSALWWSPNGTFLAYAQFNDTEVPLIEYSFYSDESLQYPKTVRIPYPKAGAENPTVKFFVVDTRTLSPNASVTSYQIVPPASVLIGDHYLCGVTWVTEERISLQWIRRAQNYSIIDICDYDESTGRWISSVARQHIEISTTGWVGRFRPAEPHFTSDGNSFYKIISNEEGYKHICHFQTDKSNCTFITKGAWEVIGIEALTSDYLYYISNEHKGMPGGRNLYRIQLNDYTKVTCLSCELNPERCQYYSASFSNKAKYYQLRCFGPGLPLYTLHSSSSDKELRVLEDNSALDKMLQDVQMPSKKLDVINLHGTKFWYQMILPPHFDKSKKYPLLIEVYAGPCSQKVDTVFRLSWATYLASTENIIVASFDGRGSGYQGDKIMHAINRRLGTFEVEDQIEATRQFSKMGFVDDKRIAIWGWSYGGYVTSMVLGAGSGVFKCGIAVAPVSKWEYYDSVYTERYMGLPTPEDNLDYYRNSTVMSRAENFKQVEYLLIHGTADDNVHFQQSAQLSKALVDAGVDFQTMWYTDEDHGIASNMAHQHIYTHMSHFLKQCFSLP
# protocol-summary: Assay of DPP-IV enzyme inhibitory activity (spectrophotometric, Gly-Pro-pNA cleavage)
# Type: biochemical
# measurement-conditions: Porcine DPP-IV, Gly-Pro-pNA substrate, 30° C.; mean ± SD of three experiments except compound Nos. 133 & 139; read-out: IC50 (μM) Mean ± SD, inhibitory activity on DPP-IV enzyme activity
Counter-ions that a name gives are not always drawn.
Would you kindly list IC50 for each of these compounds?
Answers are plain numbers, in µM.

In [3]: df
Out[3]:
                                   compound  quantity_unit  recorded_result
0  CCNN(CC(=O)N1CSCC1C#N)C1CCN(CC(=O)Nc2ccc(Cl)cn2)CC1 (stereo not shown) [Compound No. 101, tris-hydrochloride]             µM            0.488
1  N#CC1CSCN1C(=O)CN(N)C1CCC(NC(=O)c2ccc(F)cc2)CC1.O=C(O)C(F)(F)F (stereo not shown)             µM             0.93
2  CC1CCC(N(CC(=O)N2CSCC2C#N)NC2CCN(Cc3cccnc3)CC2)CC1 (stereo not shown)             µM             16.7
3  N#CC1CSCN1C(=O)CN(N)C1CCN(S(=O)(=O)c2ccc(Cl)cc2)CC1 (stereo not shown)             µM             1.54

I would be grateful if you could provide IC50 for each of the following entries.
1. N#CC1CCCN1C(=O)CNNC1CCCCC1 (stereo not shown)
2. CC(C)N1CCC(N(N)CC(=O)N2CSCC2C#N)CC1 (stereo not shown)
3. CCN(CC)NCC(=O)N1CSCC1C#N (stereo not shown)

30.3
3.5
57.1

I would be grateful if you could provide IC50 for each of the following entries.
1. COc1ccc(S(=O)(=O)NC2CCC(N(N)CC(=O)N3CSCC3C#N)CC2)cc1.O=C(O)C(F)(F)F (stereo not shown)
2. N#CC1CSCN1C(=O)CN(N)C1CCN(C(=O)c2cccc(Cl)c2Cl)CC1 (stereo not shown)
3. Cc1ccc(S(=O)(=O)N2CCC(N(N)CC(=O)N3CSCC3C#N)CC2)cc1 (stereo not shown)
4. Cc1ccc(S(=O)(=O)N2CCC(NN(C)CC(=O)N3CSCC3C#N)CC2)cc1 (stereo not shown)
5. CN(CC(=O)N1CSCC1C#N)NC1CCN(Cc2cccnc2)CC1 (stereo not shown)

1.33
1.79
2.7
44.2
9.27

Param item = COc1ccc(S(=O)(=O)N2CCC(N(N)CC(=O)N3CSCC3C#N)CC2)cc1.O=C(O)C(F)(F)F (stereo not shown) ; retrieve measured IC50. 6.7
